# method.summary: Pharmacokinetics assay in BALB/C nude mice after intragastrical administration
# Type: in vivo
# particulars: female, mouse, plasma, po, 3 mg/kg, read-out: Plasma Conc. Cmax
reported.metric: Cmax (ng/mL)
Hi! Could you send only the number? It should be in ng/mL, unit omitted.

{"compound": "CCn1cc(-c2ccc3c(c2)CC(C)N(CC(C)(C)F)C3c2c(F)cc(/C=C/C(=O)O)cc2F)cn1 (stereo not shown)", "units.text": "ng/mL", "Cmax": 3290}

Provide only the value of recorded Cmax for CC1Cc2c(oc3cccc(F)c23)C(c2c(F)cc(/C=C/C(=O)O)cc2F)N1CC(C)(C)F (stereo not shown)
1490

Specify measured Cmax for "CCn1cc(-c2ccc3c(c2)C[C@@H](C)N(CC(C)(C)F)[C@@H]3c2c(F)cc(/C=C/C(=O)O)cc2F)cn1" .
4300

Respond only with Cmax recorded for "C[C@@H]1Cc2cc(-c3cnn(C(F)F)c3)ccc2[C@@H](c2c(F)cc(/C=C/C(=O)O)cc2F)N1CC(C)(C)F"
6750

Return the recorded Cmax value; entry: "C[C@@H]1Cc2c(oc3cccc(F)c23)[C@@H](c2c(F)cc(/C=C/C(=O)O)cc2F)N1CC(C)(C)F"
2530

Identify measured Cmax corresponding to "C[C@@H]1Cc2c(oc3ccccc23)[C@@H](c2c(F)cc(/C=C/C(=O)O)cc2F)N1CC(C)(C)F"
3420

Quote Cmax reported for "C[C@@H]1Cc2cc3c(cc2[C@@H](c2c(F)cc(/C=C/C(=O)O)cc2F)N1CC(C)(C)F)OCO3" please.
4130

###

Listing: log10(DC50) of selected compounds
# system.under.test: ERα (Homo sapiens (Human))
# Sequence (P03372 whole entry): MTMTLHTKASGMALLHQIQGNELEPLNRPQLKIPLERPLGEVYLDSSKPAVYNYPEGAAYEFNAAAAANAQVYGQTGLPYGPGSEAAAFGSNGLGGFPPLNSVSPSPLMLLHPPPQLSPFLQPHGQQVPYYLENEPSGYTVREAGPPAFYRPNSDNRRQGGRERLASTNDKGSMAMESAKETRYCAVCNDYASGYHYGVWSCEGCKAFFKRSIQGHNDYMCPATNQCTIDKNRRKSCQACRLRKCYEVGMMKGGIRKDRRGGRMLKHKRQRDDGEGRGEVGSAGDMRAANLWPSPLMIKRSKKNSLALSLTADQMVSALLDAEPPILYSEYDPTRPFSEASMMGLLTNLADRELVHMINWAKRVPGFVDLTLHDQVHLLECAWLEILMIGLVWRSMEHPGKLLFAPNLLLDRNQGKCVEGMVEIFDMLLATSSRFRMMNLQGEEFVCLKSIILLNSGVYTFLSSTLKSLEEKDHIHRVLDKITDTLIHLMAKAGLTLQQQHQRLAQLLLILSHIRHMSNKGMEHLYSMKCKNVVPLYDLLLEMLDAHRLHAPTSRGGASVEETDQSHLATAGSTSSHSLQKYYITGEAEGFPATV
# method.summary: Degradation effect on ERα in MCF-7 cells (ERα Duoset ELISA)
# Assay type: cell-based
# particulars: MCF-7 cells; read-out: IC50 value of the degradation effect on ERα
// do not treat as linear: log10 of DC50, unit nM

Worked cases, log10(DC50) given:
{"compound": "CC1Cc2c(oc3ccccc23)C(c2c(F)cc(/C=C/C(=O)O)cc2F)N1CC(C)(C)F (stereo not drawn)", "reported.measurement": -0.25}
{"compound": "CCn1cc(-c2ccc3oc4c(c3c2)CC(C)N(CC(C)(C)F)C4c2c(F)cc(/C=C/C(=O)O)cc2F)cn1 (stereo not drawn)", "reported.measurement": 0.39}
{"compound": "C[C@@H]1Cc2c(oc3ccccc23)[C@@H](c2c(F)cc(/C=C/C(=O)O)cc2F)N1CC(C)(C)F", "reported.measurement": -0.96}
{"compound": "CC1Cc2c(sc3ccccc23)C(c2c(F)cc(/C=C/C(=O)O)cc2F)N1CC(C)(C)F (stereo not drawn)", "reported.measurement": 0.60}
{"compound": "CC1Cc2cc(-c3cnn(C4CC4)c3)ccc2C(c2c(F)cc(/C=C/C(=O)O)cc2F)N1CC(C)(C)F (stereo not drawn)", "reported.measurement": 0.25}

Read the next record carefully.
Specify reported log10(DC50) for the compound shown: CCn1cc(-c2cc3c(cc2F)C(c2c(F)cc(/C=C/C(=O)O)cc2F)N(CC(C)(C)F)C(C)C3)cn1 (stereo not drawn)
0.16

###

# system.under.test: estrogen receptor (ER) (Homo sapiens (Human))
# Sequence (P03372 whole entry): as above
# method.summary: Inhibition of the binding of estrogen (E) to estrogen receptor (ER), MCF-7/ERE-luciferase reporter cells
# particulars: MCF-7/ERE-luciferase cells, 0.1 nM estradiol, 24 hours; read-out: IC50 value of inhibition effect on the binding of E to ER
pIC50: −log10 of the molar value.
Kindly return true if reported pIC50 is no lower than 8; return false if it is lower.

Please review the entries below; each comes with its answer.
{"molecule": "CC1Cc2cc3[nH]ncc3cc2C(c2c(F)cc(/C=C/C(=O)O)cc2F)N1CC(C)(C)F (stereo not drawn)", "label.class": "true"}
{"molecule": "CC1Cc2c(ccc3[nH]ncc23)C(c2ccc(/C=C/C(=O)O)cc2)N1CC(C)(C)F (stereo not drawn)", "label.class": "true"}

Is pIC50 for CC1Cc2cc(-c3cnn(C)c3)ccc2C(c2c(F)cc(/C=C/C(=O)O)cc2F)N1CC(C)(C)F (stereo not drawn) at or above 8?
true

Textbook exercise: given the entry CC1Cc2cc3ocnc3cc2C(c2c(F)cc(/C=C/C(=O)O)cc2F)N1CC(C)(C)F (stereo not drawn) , state whether its pIC50 is greater than or equal to 8.
true

Test whether the molecule "CCn1cc(-c2ccc3oc4c(c3c2)C[C@@H](C)N(CC(C)(C)F)[C@@H]4c2c(F)cc(/C=C/C(=O)O)cc2F)cn1" records pIC50 of 8 or higher.
true

Item CC1Cc2c(ccc3[nH]ncc23)C(c2c(F)cc(/C=C/C(=O)O)cc2F)N1C1CCCC1 (stereo not drawn) with pIC50 of 8 or above?
true

###

Measured MRT values are reported for all entries that follow.
# method.summary: Pharmacokinetics assay in BALB/C nude mice after intragastrical administration
# Type: in vivo
# particulars: female, mouse, plasma, po, 3 mg/kg, read-out: Mean Residence Time MRT
Give the quantity in h, number only.

Illustrative cases are given below, each with its answer.
{"compound": "CC1Cc2c(oc3cccc(F)c23)C(c2c(F)cc(/C=C/C(=O)O)cc2F)N1CC(C)(C)F (centres unmarked)", "units.text": "h", "MRT": 2.45}
{"compound": "C[C@@H]1Cc2cc(-c3cnn(C(F)F)c3)ccc2[C@@H](c2c(F)cc(/C=C/C(=O)O)cc2F)N1CC(C)(C)F", "units.text": "h", "MRT": 5.93}
{"compound": "CCn1cc(-c2ccc3oc4c(c3c2)CC(C)N(CC(C)(C)F)C4c2c(F)cc(/C=C/C(=O)O)cc2F)cn1 (centres unmarked)", "units.text": "h", "MRT": 5.7}

Could you please provide reported MRT for "C[C@@H]1Cc2c(oc3cccc(F)c23)[C@@H](c2c(F)cc(/C=C/C(=O)O)cc2F)N1CC(C)(C)F" ? Thanks!
2.41

Please list MRT recorded for the compound "C[C@@H]1Cc2c(oc3ccccc23)[C@@H](c2c(F)cc(/C=C/C(=O)O)cc2F)N1CC(C)(C)F"
3.7

State its MRT for this compound: Cc1ncc(-c2ccc3c(c2)CC(C)N(CC(C)(C)F)C3c2c(F)cc(/C=C/C(=O)O)cc2F)s1 (centres unmarked)
5.72

State its MRT: "C[C@@H]1Cc2cc(-c3cnn(C)c3)ccc2[C@@H](c2c(F)cc(/C=C/C(=O)O)cc2F)N1CC(C)(C)F"
3.23

Return value of MRT for input "CCn1cc(-c2ccc3c(c2)C[C@@H](C)N(CC(C)(C)F)[C@@H]3c2c(F)cc(/C=C/C(=O)O)cc2F)cn1" , no commentary.
2.71

###

# method.summary: Pharmacokinetics assay in BALB/C nude mice after intragastrical administration
# Type: in vivo
# particulars: female, mouse, plasma, po, 3 mg/kg, read-out: Half-Life t½ (converted)
reported.metric: half-life (h)
Answer format: numeric, h implied, no suffix.

Completed entries (count: 3):
{"compound": "C[C@@H]1Cc2cc(-c3cnn(C(F)F)c3)ccc2[C@@H](c2c(F)cc(/C=C/C(=O)O)cc2F)N1CC(C)(C)F", "half-life [h]": 4.74}
{"compound": "Cc1ncc(-c2ccc3c(c2)CC(C)N(CC(C)(C)F)C3c2c(F)cc(/C=C/C(=O)O)cc2F)s1 (stereo not shown)", "half-life [h]": 4.11}
{"compound": "C[C@@H]1Cc2c(oc3cccc(F)c23)[C@@H](c2c(F)cc(/C=C/C(=O)O)cc2F)N1CC(C)(C)F", "half-life [h]": 3.16}

# evaluate next
Give half-life for CC1Cc2c(oc3ccc(-c4cnn(C)c4)cc23)C(c2c(F)cc(/C=C/C(=O)O)cc2F)N1CC(C)(C)F (stereo not shown)
3.97

###

# method.summary: Pharmacokinetics assay in BALB/C nude mice after intragastrical administration
# Type: in vivo
# particulars: female, mouse, plasma, po, 3 mg/kg, read-out: Area Under Curve AUC
# Description: BALB/C nude mice were used as test animals. The drug concentration in plasma at different time points was determined by LC/MS/MS after intragastrical administration of the compounds of Examples 10, 14, 20, 21, 57, 68, 71, 73, 74, 76 and 89 to BALB/C nude mice. The pharmacokinetic behavior of the compounds of the present invention was studied and evaluated in BALB/C nude mice. […]
reported.metric: AUC (ng·h/mL)
Just the number please, in ng·h/mL, no unit attached.

{"compound": "Cc1ncc(-c2ccc3c(c2)CC(C)N(CC(C)(C)F)C3c2c(F)cc(/C=C/C(=O)O)cc2F)s1 (stereo not shown) [Example 10]", "units.text": "ng·h/mL", "reported.measurement": 15400}
{"compound": "C[C@@H]1Cc2c(oc3cccc(F)c23)[C@@H](c2c(F)cc(/C=C/C(=O)O)cc2F)N1CC(C)(C)F [Example 74]", "units.text": "ng·h/mL", "reported.measurement": 5850}
{"compound": "C[C@@H]1Cc2c(oc3ccccc23)[C@@H](c2c(F)cc(/C=C/C(=O)O)cc2F)N1CC(C)(C)F [Example 68]", "units.text": "ng·h/mL", "reported.measurement": 13200}
{"compound": "CCn1cc(-c2ccc3oc4c(c3c2)CC(C)N(CC(C)(C)F)C4c2c(F)cc(/C=C/C(=O)O)cc2F)cn1 (stereo not shown) [Example 76]", "units.text": "ng·h/mL", "reported.measurement": 26900}
{"compound": "C[C@@H]1Cc2cc(-c3cnn(C(F)F)c3)ccc2[C@@H](c2c(F)cc(/C=C/C(=O)O)cc2F)N1CC(C)(C)F [Example 14]", "units.text": "ng·h/mL", "reported.measurement": 32700}

Given CCn1cc(-c2ccc3c(c2)CC(C)N(CC(C)(C)F)C3c2c(F)cc(/C=C/C(=O)O)cc2F)cn1 (stereo not shown) [Example 20] , respond with its AUC.
13000

Determine its reported AUC: CC1Cc2c(oc3cccc(F)c23)C(c2c(F)cc(/C=C/C(=O)O)cc2F)N1CC(C)(C)F (stereo not shown) [Example 73]
3950
